- testedSystem: T1, mouse LAMA4 in mouse tissue (mouse, UniProt P97927 25-1816)
- T1 construct: Native protein in tissue sections, there part of laminin trimers; also called LAMA4-positive mouse tissue; LAMA4-positive mouse brain vasculature
- T1 sequence (P97927 25-1816 limits assumed): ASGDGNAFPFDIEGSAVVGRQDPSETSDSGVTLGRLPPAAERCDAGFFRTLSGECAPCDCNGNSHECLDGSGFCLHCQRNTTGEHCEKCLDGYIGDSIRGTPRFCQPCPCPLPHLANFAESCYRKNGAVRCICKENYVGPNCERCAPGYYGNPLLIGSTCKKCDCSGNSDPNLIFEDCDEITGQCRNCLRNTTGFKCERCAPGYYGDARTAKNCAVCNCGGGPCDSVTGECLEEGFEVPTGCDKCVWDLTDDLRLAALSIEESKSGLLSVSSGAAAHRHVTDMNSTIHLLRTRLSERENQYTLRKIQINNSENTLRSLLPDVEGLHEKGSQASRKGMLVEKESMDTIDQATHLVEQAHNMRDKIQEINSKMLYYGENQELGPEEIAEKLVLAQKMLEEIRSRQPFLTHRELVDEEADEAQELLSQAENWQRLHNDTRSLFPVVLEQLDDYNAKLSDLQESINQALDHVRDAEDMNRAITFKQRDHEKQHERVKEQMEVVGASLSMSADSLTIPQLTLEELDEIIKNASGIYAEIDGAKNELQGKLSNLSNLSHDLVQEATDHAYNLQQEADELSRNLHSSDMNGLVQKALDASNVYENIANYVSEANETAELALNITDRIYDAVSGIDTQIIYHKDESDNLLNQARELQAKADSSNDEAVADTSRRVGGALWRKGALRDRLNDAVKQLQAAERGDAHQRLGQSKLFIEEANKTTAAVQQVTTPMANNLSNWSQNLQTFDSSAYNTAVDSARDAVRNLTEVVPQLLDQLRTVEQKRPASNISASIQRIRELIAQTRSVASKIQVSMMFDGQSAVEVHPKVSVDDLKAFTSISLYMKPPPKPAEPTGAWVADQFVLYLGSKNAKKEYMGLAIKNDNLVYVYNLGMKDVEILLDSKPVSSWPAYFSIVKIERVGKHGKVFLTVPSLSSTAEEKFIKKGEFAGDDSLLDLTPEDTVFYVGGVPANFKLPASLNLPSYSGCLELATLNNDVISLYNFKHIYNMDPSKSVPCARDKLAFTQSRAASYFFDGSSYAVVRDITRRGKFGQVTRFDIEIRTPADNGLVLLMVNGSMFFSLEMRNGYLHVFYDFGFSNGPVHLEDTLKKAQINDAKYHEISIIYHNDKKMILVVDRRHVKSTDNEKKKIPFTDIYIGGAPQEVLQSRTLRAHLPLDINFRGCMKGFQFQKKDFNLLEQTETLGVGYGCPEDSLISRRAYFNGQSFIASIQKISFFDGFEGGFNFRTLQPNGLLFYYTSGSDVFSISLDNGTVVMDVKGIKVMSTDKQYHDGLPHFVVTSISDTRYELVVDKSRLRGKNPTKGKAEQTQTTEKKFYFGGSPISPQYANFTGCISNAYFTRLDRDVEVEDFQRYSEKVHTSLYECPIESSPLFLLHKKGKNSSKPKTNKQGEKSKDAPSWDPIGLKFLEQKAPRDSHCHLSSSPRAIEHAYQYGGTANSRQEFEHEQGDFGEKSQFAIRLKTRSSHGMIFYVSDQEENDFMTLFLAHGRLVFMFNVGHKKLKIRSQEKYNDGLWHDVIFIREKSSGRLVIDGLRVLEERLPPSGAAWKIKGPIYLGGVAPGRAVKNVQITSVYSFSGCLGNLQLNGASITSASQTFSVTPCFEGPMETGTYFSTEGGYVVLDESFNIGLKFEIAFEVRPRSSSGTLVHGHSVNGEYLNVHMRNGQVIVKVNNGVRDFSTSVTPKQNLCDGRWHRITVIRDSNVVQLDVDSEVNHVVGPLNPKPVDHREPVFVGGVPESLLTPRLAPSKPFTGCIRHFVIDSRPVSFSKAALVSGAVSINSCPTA
- protocolDescription: staining of WT versus LAMA4.KO mouse brain cryosections, anti-human-594 secondary
quantityName: binding result

>>> observedvalue("humanized 19C12 antibody H2L4 (antibody, V domains shown, Intact humanized IgG (human Fc); also called VHv2/VLv4) VH: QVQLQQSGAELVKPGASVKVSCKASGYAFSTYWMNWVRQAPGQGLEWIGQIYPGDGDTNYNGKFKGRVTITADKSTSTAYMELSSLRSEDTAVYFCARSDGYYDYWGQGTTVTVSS VL: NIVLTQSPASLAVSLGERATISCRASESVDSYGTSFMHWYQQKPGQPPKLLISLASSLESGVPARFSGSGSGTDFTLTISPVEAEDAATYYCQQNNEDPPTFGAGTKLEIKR")
"binds"
